Test: NCI Yeast Anticancer Drug Screen. Data for the sgs1 mgt1 strain (AID 161);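 also: 0% = growth of cultures given vehicle only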
Details: S. cerevisiae sgs1 mgt1 strain, at 50.0 µM, active compounds read high
Compounds without any hit were thinned out: in the full panel of roughly 79,000, 15% have a hit. Calls of active or inactive are those of the source. Rule as the data show it: active = growth inhibition above about 70%; inactive = the rest.
Field: growth inhibition. Provide a value for each of the compounds that follow.

growth inhibition reading for CCC1(CCNC(=O)CNC(C)=O)C(=O)NC(=O)NC1=O : 10.2% (inactive)

growth inhibition reading for C[AsH](C)CC[AsH](C)C.C[AsH](C)CC[AsH](C)C.C[AsH](C)CC[AsH](C)C.[Ni] : 96.7% (active)

growth inhibition reading for CN(C)C(=O)OC1C(=O)N(C)c2ccc(Cl)cc2C2(c3ccccc3)N1C2(Cl)Cl (centres undefined) : -22.2% (inactive)

growth inhibition reading for COC(=O)C1C(O)CC2(O)CC(O)CC(O)C(O)CCC(O)CC(O)CC(=O)OC(C)C(C)C(O)C(C)/C=C/C=C/C=C/C=C/C=C/C=C/C=C/C(OC3OC(C)C(O)C(N)C3O)CC1O2 (centres undefined) : -4.9% (inactive)

growth inhibition reading for O=C(O)COc1ccc(Cl)cc1Cl (tested in a mixture with another compound) : 14.7% (inactive)

growth inhibition reading for Cn1c(O)c(C=N)c(=O)n(C)c1=O : -2.6% (inactive)

growth inhibition reading for CC(NCCO)C(O)c1ccccc1 (centres undefined) : -2.25% (inactive)

growth inhibition reading for CC(Cl)CN1COc2c3c(c4ccccc4c2C1)CN(CC(C)Cl)CO3 (centres undefined) : 82.8% (active)

growth inhibition reading for Cc1cc(OC(=O)N(CCCl)CCCl)c(C(C)C)cc1N=O : 78.5% (active)
